- measured_on: Histone acetyltransferase KAT2B (Homo sapiens, UniProt Q92831)
- Sequence (Q92831 whole entry, the tested form may be a part): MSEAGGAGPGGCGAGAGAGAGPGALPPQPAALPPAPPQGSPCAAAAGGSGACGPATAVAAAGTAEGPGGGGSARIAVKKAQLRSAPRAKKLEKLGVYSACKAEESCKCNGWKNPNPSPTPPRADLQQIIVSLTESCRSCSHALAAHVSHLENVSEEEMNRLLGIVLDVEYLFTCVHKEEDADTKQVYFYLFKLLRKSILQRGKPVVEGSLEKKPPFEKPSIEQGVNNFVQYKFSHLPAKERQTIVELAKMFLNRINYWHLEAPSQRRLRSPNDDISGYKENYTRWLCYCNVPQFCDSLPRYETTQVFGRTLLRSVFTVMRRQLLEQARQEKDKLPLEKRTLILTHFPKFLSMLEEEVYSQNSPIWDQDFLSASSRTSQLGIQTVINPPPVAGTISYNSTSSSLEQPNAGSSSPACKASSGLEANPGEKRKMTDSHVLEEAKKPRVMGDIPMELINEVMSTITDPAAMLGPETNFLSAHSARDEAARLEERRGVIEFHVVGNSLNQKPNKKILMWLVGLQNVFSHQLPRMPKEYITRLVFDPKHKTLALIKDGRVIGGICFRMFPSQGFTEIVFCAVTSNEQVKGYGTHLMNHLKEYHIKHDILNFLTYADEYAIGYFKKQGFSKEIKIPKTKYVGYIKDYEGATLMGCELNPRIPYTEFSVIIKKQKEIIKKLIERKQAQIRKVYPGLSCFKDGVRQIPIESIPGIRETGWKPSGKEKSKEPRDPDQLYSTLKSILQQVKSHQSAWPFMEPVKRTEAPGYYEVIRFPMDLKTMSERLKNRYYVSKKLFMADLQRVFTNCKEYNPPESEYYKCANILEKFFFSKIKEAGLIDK
- test_details: Binding affinity to human partial length PCAF (G715 to D831 residues) expressed in bacterial expression system by BROMOscan assay
pKd: −log10 of the molar value.
measured_attribute: pKd

COc1cc2c(cc1-c1c(C)noc1C)[nH]c1nc(C)nc(-c3ccnc4ccccc34)c12; < 5.40

* * *

- measured_on: Bromodomain-containing protein 4 (Homo sapiens, UniProt O60885)
- test_details: Inhibition of FAM-labeled ZBA248 binding to recombinant human N-terminal His6-tagged BRD4 bromodomain 2 (333 to 460 residues) expressed in Rosetta2 DE3 cells after 30 mins by Flourescence polarization assay
- Assay type: biochemical
Threshold-based label: IC50 under 200 nM gives criterion met, IC50 not under 200 nM gives criterion not met.

COc1cc2c(cc1-c1c(C)noc1C)[nH]c1ncnc(-c3ccoc3)c12; criterion met
COc1cc2c(cc1-c1c(C)noc1C)[nH]c1nc(C)nc(-c3cccc4cnccc34)c12; criterion not met
COc1cc2c(cc1-c1c(C)noc1C)[nH]c1ncnc(-c3c(C)[nH]c4cnccc34)c12; criterion met
COc1cc2c(cc1-c1c(C)noc1C)[nH]c1nc(C)nc(-c3cncc4ccccc34)c12; criterion met
COc1cc2c(cc1-c1c(C)noc1C)[nH]c1ncnc(-c3c(C)noc3C)c12; criterion met
